Test system: UACC-257 melanoma
Assay: NCI-60 one-dose screen, 48 h (100 = growth as untreated, 0 = no growth, -100 = all killed)
Conditions: 10 µM unless noted
Compounds without any hit were thinned out: in the full panel of roughly 83,000, 20% have a hit. Activity calls are given as the source filed them. How the source made its calls: active means growth percent below 10; inactive means the rest.
Measured growth, listed per entry.

{"Compound": "CCc1nc(C(N)=O)c(Nc2ccc(N3CCC(N4CCN(C)CC4)CC3)c(OC)c2)nc1NC1CCOCC1", "growth": "40.5% (inactive)"}
{"Compound": "CCN(CCCOc1ccc2c(Nc3cc(CC(=O)Nc4cccc(F)c4)[nH]n3)ncnc2c1)CCOP(=O)(O)O", "growth": "49.9% (inactive)"}
{"Compound": "CC(=O)c1c(C)c2cnc(Nc3ccc(N4CCNCC4)cn3)nc2n(C2CCCC2)c1=O", "growth": "-11.7% (active)"}
{"Compound": "Cc1cccc(Cl)c1NC(=O)c1cnc(Nc2cc(N3CCOCC3)cc(S(C)(=O)=O)c2)s1", "growth": "43.2% (inactive)"}
{"Compound": "CC(C)c1cc(CNc2nc(Nc3cc(C4CC4)[nH]n3)cc(N3CCN(C)CC3)n2)on1", "growth": "-14.3% (active)"}
{"Compound": "CC/C(=C(/c1ccc(Cl)cc1)c1ccc(OCCN2CCCCC2)cc1)c1ccc(Cl)cc1", "growth": "78.3% (inactive)"}

For the compound "CC[C@H](Nc1ncnc2nc[nH]c12)c1nc2cccc(F)c2c(=O)n1-c1ccccc1" , what growth is on record? 39.9% (inactive)

For the compound "CNS(=O)(=O)Nc1nccc(Cc2c(C)c3ccc(Oc4ncccn4)cc3oc2=O)c1F" , what growth is on record? -5.41% (active)

For the compound "O=C(/C=C/c1ccc2c(c1)OCO2)c1c(O)c2ccccc2oc1=O" , what growth is on record? 78.1% (inactive)

For the compound O=C1OCC2=C1C(c1cccc(F)c1)c1cc3c(cc1N2CCO)OCCO3 (centres undefined) , what growth is on record? 89% (inactive)

For the compound "O=C(Nc1ccc(-c2ccnc(Nc3ccc(N4CCOCC4)cc3)n2)cc1)[C@@H]1CCCN1" , what growth is on record? 16.8% (inactive)

For the compound "C/C=C/C=N/NC(=S)Nc1ccccc1" , what growth is on record? 81.1% (inactive)

For the compound "C=CC(=O)Nc1cc(Nc2nccc(-c3cn(C)c4ccccc34)n2)c(OC)cc1N(C)CCN(C)C" , what growth is on record? -79.1% (active)

For the compound "CNC(=O)c1c(C)oc2cc(Oc3ncnc4cc(OC)c(OC)cc34)ccc12" , what growth is on record? 86.6% (inactive)

For the compound "C[C@@H]1COCCN1c1cc(C2([S@](C)(=N)=O)CC2)nc(-c2ccnc3[nH]ccc23)n1" , what growth is on record? 52.8% (inactive)

For the compound O=C1C=CC2(NN=C(c3ccccc3)N2c2cccc(Cl)c2)C(Cl)=C1 (centres undefined) , what growth is on record? 78.4% (inactive)

For the compound "O=C(CNc1nc(-c2ccc(Cl)cc2)cs1)Nc1ccc(-c2nc3ccccc3s2)cc1" , what growth is on record? 100% (inactive)

For the compound "C=CC(=O)Nc1cc2c(Nc3ccc(F)c(Cl)c3)ncnc2cc1C#CC(C)(C)N1CCN(C)CC1" , what growth is on record? -86.2% (active)

For the compound "Cc1nc2ccc(-n3ncc(C(=O)c4cc5ccccc5[nH]4)c3N)cc2[nH]1" , what growth is on record? 79.5% (inactive)

For the compound "S=C(NCc1ccc2c(c1)OCO2)N1CCN(c2ncnc3c2oc2ccccc23)CC1" , what growth is on record? 9.31% (active)

For the compound "O=C1CCC(=O)CC1" , what growth is on record? 89.4% (inactive)

For the compound "O=C(Cn1cncn1)Nc1ccc(-c2nc3ccccc3s2)cc1" , what growth is on record? 102% (inactive)

For the compound "Cn1cc(-c2ncnc3ccc(-c4cnc(Cl)c(NS(C)(=O)=O)c4)cc23)c2ccccc21" , what growth is on record? 5.53% (active)

For the compound "Cn1cnc2c(F)c(Nc3ccc(Br)cc3Cl)c(C(=O)NOCCO)cc21" , what growth is on record? -21.2% (active)

For the compound "C#Cc1cccc(Nc2ncnc3cc4c(cc23)OCCOCCOCCO4)c1" , what growth is on record? 38.9% (inactive)

For the compound "Cc1ccc(NC(=O)c2ccc(CN3CC[C@H](N(C)C)C3)c(C(F)(F)F)c2)cc1Nc1nccc(-c2cncnc2)n1" , what growth is on record? -74.7% (active)

For the compound "Cc1[nH]n(C(N)=S)c(=O)c1N=Nc1ccc(S(=O)(=O)Nc2ccncn2)cc1" , what growth is on record? 117% (inactive)

###

Measured growth, listed per entry.
System: HCC-2998 colon
Assay: NCI-60 one-dose screen, 48 h (100 = growth as untreated, 0 = no growth, -100 = all killed)
Conditions: 10 µM
This is part of a sample that, as a whole, favours compounds with a hit. Of some 83,000 tested, about 20% had one in any assay.
Please respond with the number in % and leave the unit unwritten.

In the examples that follow, each entry is paired with its recorded growth.
{"Molecule": "COc1cc2cc(NCc3ccc(Cl)cc3)nc(C)c2cc1OC", "Recorded number": 27.2}
{"Molecule": "C=CC(=O)N1CCC[C@@H](n2nc(-c3ccc(Oc4ccccc4)cc3)c3c(N)ncnc32)C1", "Recorded number": 103}
{"Molecule": "O=C1/C(=C\\c2cccc(OCCCCCOc3ccc(Cl)cc3)c2)N=C2SCCCN12", "Recorded number": 71}
{"Molecule": "O=C(Nc1cccc(Cl)c1)Nc1ncc(CCNc2ncnc3ccsc23)s1", "Recorded number": 80.1}
{"Molecule": "Nc1nc(N)c2nc(-c3cccc(O)c3)c(-c3cccc(O)c3)nc2n1", "Recorded number": 94.6}
{"Molecule": "CCN(CCN(C)C)C(=O)CNCc1cc(C(N)=O)ccn1", "Recorded number": 94.2}

For the molecule "COC(=O)c1ccc2c(C(=Nc3ccc(N(C)C(=O)CN4CCN(C)CC4)cc3)c3ccccc3)c(O)[nH]c2c1" , what growth is on record? 84.3

###

Tested on: EKVX NSCLC
Assay: NCI-60 one-dose screen, 48 h (100 = growth as untreated, 0 = no growth, -100 = all killed)
Conditions: 10 µM unless noted
Procedure: Growth inhibition of the EKVX human Non-Small Cell Lung tumor cell line is measured as a screen for anti-cancer activity. Cells are grown in 96 well plates and exposed to the test compound for 48 hours. Compounds are tested at a single concentration, which is 10^-5 M for most compounds. The reported endpoint is percent growth (GI% or GIPRCNT), where numbers from 0 - 100% represent growth inhibition, and numbers from -100% - 0 represent cell death. […]
About 83,000 compounds went through this panel and 20% of them were active in at least one assay; those are over-represented in the sample as a whole. Activity calls are given as the source filed them. The calls were made as follows: active = growth percent below 10; inactive = the rest.
Measured growth, listed per entry.

In the examples that follow, each entry is paired with its recorded growth.
{"Compound": "CCc1cc2c(cc1N1CCC(N3CCOCC3)CC1)C(C)(C)c1[nH]c3cc(C#N)ccc3c1C2=O", "Measured property": "growth", "Result": "15.9% (inactive)"}
{"Compound": "CCCCCCCC(=O)SCC/C=C/[C@@H]1CC(=O)NCc2cccc(n2)C2=N[C@@](C)(CS2)C(=O)N[C@@H](C(C)C)C(=O)N1", "Measured property": "growth", "Result": "51.3% (inactive)"}
{"Compound": "Cc1cc(C(O)CN(C)C)cc2c1ccc1cc(C(C)C)ccc12 (stereo not given)", "Measured property": "growth", "Result": "84.5% (inactive)"}
{"Compound": "COc1ccc(-c2nc(N)ncc2Oc2ccccc2OC)c(O)c1", "Measured property": "growth", "Result": "40.1% (inactive)"}
{"Compound": "COc1cnc2c(c1)C(=O)c1c-2n(CCCN2CCOCC2)c(=O)c2cc(Cl)ccc12", "Measured property": "growth", "Result": "54.2% (inactive)"}
{"Compound": "N#Cc1c(-c2ccc(Cl)cc2)csc1NC(=O)Nc1cccc(C(F)(F)F)c1", "Measured property": "growth", "Result": "17.3% (inactive)"}
{"Compound": "COC1CCC(N2C(=O)CNc3ncc(-c4ccc(C(C)(C)O)nc4)nc32)CC1 (stereo not given)", "Measured property": "growth", "Result": "10.9% (inactive)"}
{"Compound": "Cc1cc(Nc2cc(N3CCN(C)CC3)nc(Sc3ccc(NC(=O)C4CC4)cc3)n2)n[nH]1", "Measured property": "growth", "Result": "76.6% (inactive)"}

For the compound "COc1cc(CCc2cc(NC(=O)c3ccc(N4C[C@@H](C)N[C@@H](C)C4)cc3)n[nH]2)cc(OC)c1" , what growth is on record? 84.7% (inactive)

For the compound "O=C1NC(=O)[C@@H](c2cn3c4c(cccc24)CCC3)[C@@H]1c1c[nH]c2ccccc12" , what growth is on record? 31.4% (inactive)
